Test system: HL-60
Assay: Ability to induce differentiation of human promyelocytic leukemia cell line HL-60 to mature granulocytes.
Assay type: functional
Settings: read-out: ED50 (the source's name)
# Lookup of reported pEC50 keyed by entry
Please report pEC50 as the negative decimal logarithm of the molar concentration, giving only the number.

Please review the following examples before continuing.
stdin: Which measured pEC50 value corresponds to C[Si](C)(C)c1cc(C(=O)Nc2ccc(C(=O)O)cc2)cc([Si](C)(C)C)c1 [AMSILAROTENE] ?
stdout: 8.04

stdin: Which measured pEC50 value corresponds to CCc1ccc(C(=O)/C=C/c2ccc(C(=O)O)cc2)cc1CC ?
stdout: 6.77

stdin: Which measured pEC50 value corresponds to CC(C)c1cccc(NC(=O)c2ccc(C(=O)O)cc2)c1 ?
stdout: 6.17

Continuing:
stdin: Which measured pEC50 value corresponds to CC1=C(/C=C/C(C)=C/C=C/C(C)=C/C(=O)O)C(C)(C)CCC1 [TRETINOIN] ?
stdout: 8.62

stdin: Which measured pEC50 value corresponds to CC(C)(C)c1cc(C(=O)Nc2ccc(C(=O)O)cc2)cc(C(C)(C)C)c1 ?
stdout: 7.32

stdin: Which measured pEC50 value corresponds to CC(C)(C)c1cc(NC(=O)c2ccc(C(=O)O)cc2)cc(C(C)(C)C)c1 ?
stdout: 7.44

stdin: Which measured pEC50 value corresponds to C[Si](C)(C)c1cccc(/C=C/c2ccc(C(=O)O)cc2)c1 ?
stdout: 9.00

* * *

System: HL-60
Test: Ability to induce differentiation of human promyelocytic leukemia cell line HL-60 to mature granulocytes.
Type: functional
Conditions: read-out: ED50 (the source's name)
# Lookup of reported log10 of EC50 keyed by entry
log10 EC50, nM

Please review the following examples before continuing.
stdin: Which measured log10 of EC50 value corresponds to C[Si](C)(C)c1cccc(NC(=O)c2ccc(C(=O)O)cc2)c1 ?
stdout: 1.93

stdin: Which measured log10 of EC50 value corresponds to C[Si](C)(C)c1cc(C(=O)/C=C/c2ccc(C(=O)O)cc2)cc([Si](C)(C)C)c1 ?
stdout: -0.85

stdin: Which measured log10 of EC50 value corresponds to CC(C)(C)c1cccc(NC(=O)c2ccc(C(=O)O)cc2)c1 ?
stdout: 2.85

stdin: Which measured log10 of EC50 value corresponds to CC1(C)CCC(C)(C)c2cc(NC(=O)c3ccc(C(=O)O)cc3)ccc21 ?
stdout: -0.10

stdin: Which measured log10 of EC50 value corresponds to CC(C)(C)c1cccc(C(=O)/C=C/c2ccc(C(=O)O)cc2)c1 ?
stdout: 2.20

Continuing:
stdin: Which measured log10 of EC50 value corresponds to C[Si](C)(C)c1cccc(C(=O)/C=C/c2ccc(C(=O)O)cc2)c1 ?
stdout: 1.64

stdin: Which measured log10 of EC50 value corresponds to C[Si](C)(C)c1cc(NC(=O)c2ccc(C(=O)O)cc2)cc([Si](C)(C)C)c1 ?
stdout: 1.48
